Test: Cytotoxicity against human LX-2 cells assessed as reduction in cell viability measured after 48 hrs by CCK-8 assay
Format: toxicity, cell-based
measurement-kind: IC50 at 48 h (µM)
The response must be a number in µM with no trailing unit.

Reported IC50 at 48 h for COC(=O)CCC[C@@H]1[C@H]2CCCN3CCC[C@H](CN1C(=O)Cc1ccc(-c4ccccc4)cc1)[C@@H]23 was 31.7

====

Experiment: Cytotoxicity against human LX-2 cells assessed as reduction in cell viability measured after 48 hrs by CCK-8 assay
Format: toxicity, cell-based
Measured IC50 at 48 h, listed per entry for reference.

Consider COC(=O)CCC[C@@H]1[C@H]2CCCN3CCC[C@H](CN1C(=O)CC1=C(C)/C(=C/c4ccc([S+](C)[O-])cc4)c4ccc(F)cc41)[C@@H]23 (stereo not given in full) . Its measured IC50 at 48 h is 61.8 µM

What the record says about COC(=O)CCC[C@@H]1[C@H]2CCCN3CCC[C@H](CN1C(=O)Cc1ccc(-c4ccccc4)c(F)c1)[C@@H]23 : IC50 at 48 h is 14.5 µM

Data point: COC(=O)CCC[C@@H]1[C@H]2CCCN3CCC[C@H](CN1C(=O)C(C)c1ccc(-c4ccccc4)c(F)c1)[C@@H]23 (stereo not given in full) ; IC50 at 48 h = 38.2 µM

====

Assay: Cytotoxicity against human LX-2 cells assessed as reduction in cell viability measured after 48 hrs by CCK-8 assay
Type: toxicity, cell-based
# IC50 at 48 h values compiled below
Give the number; µM is assumed, so skip it.

# annotated cases, reported IC50 at 48 h shown
[[record]]
compound = "COC(=O)CCC[C@@H]1[C@H]2CCCN3CCC[C@H](CN1C(=O)Cc1ccc(-n4c(C)ccc4C)cc1)[C@@H]23"
measurement_kind = "IC50 at 48 h"
numeric_value = 96

[[record]]
compound = "COC(=O)CCC[C@@H]1[C@H]2CCCN3CCC[C@H](CN1C(=O)COC(=O)Cc1ccccc1Nc1c(Cl)cccc1Cl)[C@@H]23"
measurement_kind = "IC50 at 48 h"
numeric_value = 14.7

[[record]]
compound = "COC(=O)CCC[C@@H]1[C@H]2CCCN3CCC[C@H](CN1C(=O)C(C)c1ccc(-c4ccccc4)cc1)[C@@H]23 (some centres not stated)"
measurement_kind = "IC50 at 48 h"
numeric_value = 21.9

[[record]]
compound = "COC(=O)CCC[C@@H]1[C@H]2CCCN3CCC[C@H](CN1C(=O)Cc1ccc(-c4cccc(F)c4)cc1)[C@@H]23"
measurement_kind = "IC50 at 48 h"
numeric_value = 53.3

[[record]]
compound = "COC(=O)CCC[C@@H]1[C@H]2CCCN3CCC[C@H](CN1C(=O)C(C)c1ccc(CC(C)C)cc1)[C@@H]23 (some centres not stated)"
measurement_kind = "IC50 at 48 h"
numeric_value = 53


Here's the next entry for you.
// field: IC50 at 48 h; key: COC(=O)CCC[C@@H]1[C@H]2CCCN3CCC[C@H](CN1C(=O)[C@H](C)c1ccc4cc(OC)ccc4c1)[C@@H]23 ; value = 63.5
